experimental.target: EGFR (A767_dupASV) expressing Ba/F3 stable cell line (Homo sapiens, UniProt P00533, DUP767-769, cells depend on it)
Sequence (P00533 with tags, fused parts or gaps DUP767-769): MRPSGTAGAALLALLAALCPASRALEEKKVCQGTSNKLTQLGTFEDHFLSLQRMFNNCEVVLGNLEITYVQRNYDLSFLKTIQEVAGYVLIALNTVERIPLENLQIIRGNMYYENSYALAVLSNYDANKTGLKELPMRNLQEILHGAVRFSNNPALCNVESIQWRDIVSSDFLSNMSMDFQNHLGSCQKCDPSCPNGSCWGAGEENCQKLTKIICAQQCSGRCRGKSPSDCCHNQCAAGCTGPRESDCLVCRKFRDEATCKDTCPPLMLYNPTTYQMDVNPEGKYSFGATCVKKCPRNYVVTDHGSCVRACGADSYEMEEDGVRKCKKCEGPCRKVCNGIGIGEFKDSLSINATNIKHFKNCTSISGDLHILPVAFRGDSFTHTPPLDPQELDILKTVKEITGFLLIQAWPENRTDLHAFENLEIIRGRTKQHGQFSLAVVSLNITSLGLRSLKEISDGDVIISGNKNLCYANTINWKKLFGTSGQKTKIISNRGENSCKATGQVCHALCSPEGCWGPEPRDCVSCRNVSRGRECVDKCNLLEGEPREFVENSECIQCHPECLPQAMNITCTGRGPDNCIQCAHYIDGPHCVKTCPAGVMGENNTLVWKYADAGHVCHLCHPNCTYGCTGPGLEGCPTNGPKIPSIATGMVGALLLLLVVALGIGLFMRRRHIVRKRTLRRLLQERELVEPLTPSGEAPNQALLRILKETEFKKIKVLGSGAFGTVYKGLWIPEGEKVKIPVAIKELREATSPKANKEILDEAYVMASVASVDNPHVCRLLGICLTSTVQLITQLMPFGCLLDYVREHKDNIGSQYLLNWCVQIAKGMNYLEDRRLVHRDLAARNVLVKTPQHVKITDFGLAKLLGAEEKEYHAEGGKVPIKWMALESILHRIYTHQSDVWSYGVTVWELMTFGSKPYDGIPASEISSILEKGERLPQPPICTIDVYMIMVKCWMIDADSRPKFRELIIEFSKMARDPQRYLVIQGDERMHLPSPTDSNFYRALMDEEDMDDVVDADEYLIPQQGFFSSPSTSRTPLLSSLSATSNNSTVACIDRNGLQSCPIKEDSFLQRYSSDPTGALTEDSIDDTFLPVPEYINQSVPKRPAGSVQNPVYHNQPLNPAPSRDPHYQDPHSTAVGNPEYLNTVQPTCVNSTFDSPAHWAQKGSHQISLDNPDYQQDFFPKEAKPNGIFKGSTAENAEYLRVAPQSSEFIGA
assay.explanation: Cellular proliferation (Alamar Blue) assay, EGFR A767_dupASV Ba/F3
Assay type: cell-based
condition.info: 72 hr, read-out: A767 IC50
Where a name gives a salt, the structure may show the parent alone.
test.readout: GI50 (nM)

Below: 3 compounds and their reported GI50.
{"compound": "C=CC(=O)Nc1ccc(F)c(Nc2nc(Nc3cnn(C)c3)ncc2-c2cccc(C(F)(F)F)c2)c1", "test.readout": "GI50", "observed.value": 106}
{"compound": "C=CC(=O)Nc1ccc(F)c(Nc2nc(Nc3cnn(C)c3)ncc2-c2ccc3c(ccn3C)c2)c1 [Compound 77, trifluoroacetate]", "test.readout": "GI50", "observed.value": 774}
{"compound": "C=CC(=O)Nc1ccc(F)c(Nc2nc(Nc3cnn(C)c3)ncc2-c2ccnc(C(F)(F)F)c2)c1", "test.readout": "GI50", "observed.value": 88}

1. C=CC(=O)Nc1cc(F)cc(Nc2nc(Nc3cnn(C)c3)ncc2-c2ccc(CC(F)(F)F)cc2)c1
2. C=CC(=O)Nc1ccc(F)c(Nc2nc(Nc3cnn(C)c3)ncc2-c2cccc(N(C)C)c2)c1
3. CN(C)C/C=C/C(=O)Nc1ccc(F)c(Nc2nc(Nc3cnn(C4CCC(O)CC4)c3)ncc2Cl)c1 (stereo not shown)
Form: Sort by [GI50] Order [ ascending ] // ordering of labels required in reply 1, 2, 3

All figures here come from patent US12686673B2.
